# test system: mouse albumin (mouse) (UniProt P07724)
# Sequence (P07724 25-608 limits assumed): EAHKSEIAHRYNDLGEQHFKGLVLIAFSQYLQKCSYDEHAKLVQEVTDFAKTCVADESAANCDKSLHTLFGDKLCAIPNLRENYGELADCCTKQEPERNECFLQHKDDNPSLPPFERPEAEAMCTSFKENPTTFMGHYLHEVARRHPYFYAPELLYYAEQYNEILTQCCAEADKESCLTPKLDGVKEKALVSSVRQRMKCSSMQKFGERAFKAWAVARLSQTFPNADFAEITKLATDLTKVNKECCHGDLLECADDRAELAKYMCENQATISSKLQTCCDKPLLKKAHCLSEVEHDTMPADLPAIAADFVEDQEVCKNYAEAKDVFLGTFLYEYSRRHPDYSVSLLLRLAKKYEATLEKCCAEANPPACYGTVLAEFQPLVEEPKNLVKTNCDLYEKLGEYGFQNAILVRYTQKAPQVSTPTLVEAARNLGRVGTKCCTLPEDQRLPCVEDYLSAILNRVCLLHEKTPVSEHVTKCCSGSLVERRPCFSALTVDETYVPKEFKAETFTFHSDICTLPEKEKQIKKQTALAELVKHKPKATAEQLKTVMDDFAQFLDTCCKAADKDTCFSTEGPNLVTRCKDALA
# run description: solution binding ELISA (Scatchard)
Bridges are numbered along the chain shown (N, C = ends). Where no end group is shown, it is not given here.
endpoint label: Kd (nM)
Entry rule: numbers only, all in nM.

For this binder ( {Fab4D5 heavy chain (…CDKTH)}-DICLPRWGCL (Fab, part only; not given: Carrier Fab (trastuzumab), not shown: another chain or arm of the molecule; large carriers, disulfide 3-9) [AB.Fab4D5-H11] ), measured Kd is 1250
